Target: Tyrosyl-tRNA synthetase, putative (Trypanosoma cruzi (strain CL Brener)) (UniProt Q4DSP6)
Sequence (Q4DSP6 as listed by the source): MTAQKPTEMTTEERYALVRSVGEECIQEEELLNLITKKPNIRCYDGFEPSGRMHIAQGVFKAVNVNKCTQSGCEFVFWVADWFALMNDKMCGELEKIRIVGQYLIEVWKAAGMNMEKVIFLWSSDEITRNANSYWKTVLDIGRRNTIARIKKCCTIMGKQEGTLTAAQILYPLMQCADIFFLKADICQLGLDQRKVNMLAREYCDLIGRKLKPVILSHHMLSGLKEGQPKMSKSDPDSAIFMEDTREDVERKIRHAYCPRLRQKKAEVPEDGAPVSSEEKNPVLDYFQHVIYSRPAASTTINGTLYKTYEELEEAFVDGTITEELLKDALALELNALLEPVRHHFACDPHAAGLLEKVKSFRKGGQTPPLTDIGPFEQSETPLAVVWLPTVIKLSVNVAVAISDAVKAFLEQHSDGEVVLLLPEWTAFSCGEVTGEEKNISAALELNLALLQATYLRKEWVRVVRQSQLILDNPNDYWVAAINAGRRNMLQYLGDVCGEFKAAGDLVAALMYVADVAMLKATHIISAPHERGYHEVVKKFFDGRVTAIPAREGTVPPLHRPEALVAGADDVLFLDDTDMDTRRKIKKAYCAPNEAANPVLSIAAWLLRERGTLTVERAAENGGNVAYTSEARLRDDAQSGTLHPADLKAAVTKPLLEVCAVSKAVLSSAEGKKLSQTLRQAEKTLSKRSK
Assay: Trypanosoma cruzi tyrosyl tRNA synthetase (TcYRS) SOP
Type: functional
Parameters: scale not given: direction of the effect not stated beside the values
Conditions: 30 µM
The following molecules are listed with their measured Percent Effect values.
Field format: number, assumed %, no unit text.

Examples with answers:
[
  {
    "molecule": "COc1ccc(Cc2cccc(C3CCN(C)CC3)n2)cc1",
    "u": "%",
    "Percent Effect": 1.3
  },
  {
    "molecule": "O=C(NCCO)C1(Cc2cc(-c3ccc(F)cc3F)no2)CCOCC1",
    "u": "%",
    "Percent Effect": 6.49
  },
  {
    "molecule": "COC(=O)C(C)(C)NC(=O)C1CC(=O)N(C2CCCC2)C1 (stereo unspecified)",
    "u": "%",
    "Percent Effect": 25.9
  },
  {
    "molecule": "COc1ccc(C2Nc3cc(Cl)ccc3C3=NCCN32)cc1OC (stereo unspecified)",
    "u": "%",
    "Percent Effect": 8.97
  },
  {
    "molecule": "CN1[C@H](CN2CCCC2)C[C@@H]2CN(C(=O)c3cccn3C)CC[C@@H]21",
    "u": "%",
    "Percent Effect": 12.5
  }
]

What does the data say about its Percent Effect? Entry: "Cc1noc(C)c1CN1CCN(Cc2ccncc2)c2ncccc2C1"
8.97

What does the data say about its Percent Effect? Entry: Cc1nc(C2CCCN(C(=O)CCCn3ccnc3C)C2)no1 (stereo unspecified)
-2.44

What does the data say about its Percent Effect? Entry: OC1CCCN(Cc2c(-c3ccco3)[nH]c3ncccc23)C1 (stereo unspecified)
19.5

What does the data say about its Percent Effect? Entry: "CN(C(=O)c1ccccn1)c1nc2c(s1)CCc1c-2cnn1C"
1.3

What does the data say about its Percent Effect? Entry: "CC(C)(C)c1noc(CN2CCN(C(=O)c3cccs3)CC2)n1"
14.6

What does the data say about its Percent Effect? Entry: "Cc1ccc(C(=O)NC2CCN(C(=O)Nc3ccccn3)CC2)o1"
14.1
